Sourced from paper PMC4041461

- target-desc: Δnucleolin (Homo sapiens, UniProt P19338 284-710, del1-283)
- Sequence (P19338 284-710, stated change not applied): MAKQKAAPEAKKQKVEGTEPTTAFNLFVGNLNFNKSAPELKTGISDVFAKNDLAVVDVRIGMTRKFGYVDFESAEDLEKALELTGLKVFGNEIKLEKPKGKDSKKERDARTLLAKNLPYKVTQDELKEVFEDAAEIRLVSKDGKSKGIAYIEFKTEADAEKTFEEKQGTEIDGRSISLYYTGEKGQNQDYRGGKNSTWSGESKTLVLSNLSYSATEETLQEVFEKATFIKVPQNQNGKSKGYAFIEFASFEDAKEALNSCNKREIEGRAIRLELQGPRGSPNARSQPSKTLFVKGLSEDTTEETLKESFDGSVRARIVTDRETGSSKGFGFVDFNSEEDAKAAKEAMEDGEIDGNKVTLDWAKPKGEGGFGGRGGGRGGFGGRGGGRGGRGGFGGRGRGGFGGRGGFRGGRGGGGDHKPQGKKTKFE
- measurement-protocol: SPR; SPR: 25 °C, 1:10 mixture of binding buffer (10 mM Tris-HCl pH 7.5, 150 mM KCl) and HBS-EP (10 mM HEPES pH 7.4, 150 mM NaCl, 3 mM EDTA, 0.005% P20), protein immobilized; pull-down: RNA on streptavidin beads blocked in 10 mM Tris-HCl pH 7.5, 100 mM KCl, 0.1 mM EDTA, 1 mM DTT, 0.01% Triton X-100, BSA, tRNA; extract 1 h at 30 °C, elution 400-2600 mM KCl
- condition-context: protein: recombinant; tags: N-terminal His-tag (pET28a); label: biotin; no G4
observation-type: Kd

AACGAGAGAGAGAGAGAGAGAGAGAGA (ssRNA, 3' biotin) [MMP16 mut] ... 0.6 nM

Okay, next one:
Hello, please tell me recorded Kd for this one: AGCCGUAGACUGAGCGAAGACCGAGCUUGU (ssRNA, 3' biotin) [ARPC2 mut]
83 nM
